test system: β-lactamase Citrobac.; assay: β-lactamase inhibition, Citrobac. enzyme; type: biochemical; details: 40 μg/ml
experimental.readout: % Inhibition of - lactamases at 40 μg/ml, Citrobac. (%)
Numbers only, in %.

Take a look at these entries with their results.
compound: O=C(OCc1ccccc1)[C@@H]1O[C@@H]2CC(=O)N2[C@H]1C(=O)OCc1ccccc1
numeric.readout: 2
--
compound: COC(=O)[C@H]1[C@H](CCO)O[C@@H]2CC(=O)N21 (relative stereo)
numeric.readout: 2
--
compound: O=C(O)[C@H]1CO[C@@H]2CC(=O)N12 (relative stereo)
numeric.readout: 0

stdin: Param readout= % Inhibition of - lactamases at 40 μg/ml, Citrobac.; system= β-lactamase Citrobac.; entry= COC(=O)[C@H]1[C@H](CCOS(=O)(=O)c2ccc(C)cc2)O[C@@H]2CC(=O)N21 (relative stereo) ; returns value.
stdout: 5
